- PROCEDURE SUMMARY: Half life in phosphate buffer at pH 6.5
- Assay type: physicochemical
- SETTINGS: buffer
VALUE TYPE: t1/2 (h)

molecule="COC(=O)N[C@H](C(=O)N[C@@H](Cc1ccccc1)[C@H](CN(Cc1ccc(-c2ccccn2)cc1)NC(=O)[C@@H](NC(=O)OC)C(C)(C)C)OC(=O)OC(C)OC(=O)[C@H](C(C)C)N(C)C)C(C)(C)C (stereo in doubt; 22)" unit_info=h readout_relation== obs_value=214.9
molecule="COC(=O)N[C@H](C(=O)N[C@@H](Cc1ccccc1)[C@H](CN(Cc1ccc(-c2ccccn2)cc1)NC(=O)[C@@H](NC(=O)OC)C(C)(C)C)OC(=O)OC(C)OC(=O)[C@@H](N)C(C)C)C(C)(C)C (stereo in doubt; 20)" unit_info=h readout_relation== obs_value=5.3
molecule="COC(=O)N[C@H](C(=O)N[C@@H](Cc1ccccc1)[C@H](CN(Cc1ccc(-c2ccccn2)cc1)NC(=O)[C@@H](NC(=O)OC)C(C)(C)C)OC(=O)OC(C)OC(=O)[C@@H](N)C(C)C)C(C)(C)C (stereo in doubt; 18)" unit_info=h readout_relation=> obs_value=10.9
molecule="COC(=O)N[C@H](C(=O)N[C@@H](Cc1ccccc1)[C@H](CN(Cc1ccc(-c2ccccn2)cc1)NC(=O)[C@@H](NC(=O)OC)C(C)(C)C)OC(=O)OC(C)OC(=O)[C@H](C(C)C)N(C)C)C(C)(C)C (stereo in doubt; 21)" unit_info=h readout_relation=> obs_value=500

----------
- PROCEDURE SUMMARY: Half life in acetate buffer at pH 4
- Format: physicochemical
- SETTINGS: acetate buffer
VALUE TYPE: half-life

compound="COC(=O)N[C@H](C(=O)N[C@@H](Cc1ccccc1)[C@H](CN(Cc1ccc(-c2ccccn2)cc1)NC(=O)[C@@H](NC(=O)OC)C(C)(C)C)OC(=O)OC(C)OC(=O)[C@H](C(C)C)N(C)C)C(C)(C)C (stereo in doubt; 21)" obs_value="> 20.8 days"
compound=COC(=O)N[C@H](C(=O)N[C@@H](Cc1ccccc1)[C@H](CN(Cc1ccc(-c2ccccn2)cc1)NC(=O)[C@@H](NC(=O)OC)C(C)(C)C)OC(=O)OCOC(=O)[C@H](C(C)C)N(C)C)C(C)(C)C obs_value="> 20.8 days"
compound="COC(=O)N[C@H](C(=O)N[C@@H](Cc1ccccc1)[C@H](CN(Cc1ccc(-c2ccccn2)cc1)NC(=O)[C@@H](NC(=O)OC)C(C)(C)C)OC(=O)OC(C)OC(=O)[C@@H](C(C)C)N(C)C)C(C)(C)C (stereo in doubt; 23)" obs_value="> 20.8 days"
compound=COC(=O)N[C@H](C(=O)N[C@@H](Cc1ccccc1)[C@H](CN(Cc1ccc(-c2ccccn2)cc1)NC(=O)[C@@H](NC(=O)OC)C(C)(C)C)OC(=O)OCOC(=O)[C@@H](C(C)C)N(C)C)C(C)(C)C obs_value="15.7 days"
compound=COC(=O)N[C@H](C(=O)N[C@@H](Cc1ccccc1)[C@H](CN(Cc1ccc(-c2ccccn2)cc1)NC(=O)[C@@H](NC(=O)OC)C(C)(C)C)OC(=O)OCOC(=O)[C@@H](N)Cc1ccccc1)C(C)(C)C obs_value="0.688 days"
compound="COC(=O)N[C@H](C(=O)N[C@@H](Cc1ccccc1)[C@H](CN(Cc1ccc(-c2ccccn2)cc1)NC(=O)[C@@H](NC(=O)OC)C(C)(C)C)OC(=O)OC(C)OC(=O)[C@@H](N)C(C)C)C(C)(C)C (stereo in doubt; 18)" obs_value="> 20.8 days"
